B1: library; numbered along this chain (parent)
chain: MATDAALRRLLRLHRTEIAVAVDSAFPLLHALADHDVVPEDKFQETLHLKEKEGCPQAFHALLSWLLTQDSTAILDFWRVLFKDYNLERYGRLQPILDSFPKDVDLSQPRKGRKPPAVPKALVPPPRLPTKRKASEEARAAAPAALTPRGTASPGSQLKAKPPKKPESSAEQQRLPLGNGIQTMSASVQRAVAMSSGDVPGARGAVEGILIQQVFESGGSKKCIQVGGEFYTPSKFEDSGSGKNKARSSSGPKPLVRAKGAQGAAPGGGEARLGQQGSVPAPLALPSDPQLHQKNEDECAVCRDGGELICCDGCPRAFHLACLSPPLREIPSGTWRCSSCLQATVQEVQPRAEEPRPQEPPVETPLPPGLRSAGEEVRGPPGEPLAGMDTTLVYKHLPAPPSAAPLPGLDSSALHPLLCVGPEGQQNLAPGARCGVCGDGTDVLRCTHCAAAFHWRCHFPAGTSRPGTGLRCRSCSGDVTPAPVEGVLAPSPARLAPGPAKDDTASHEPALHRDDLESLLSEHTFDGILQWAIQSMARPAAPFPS

Variants of: B1
Test: AIRE transcriptional activation functional score (insulin promoter-GFP; nonsense median 0, synonymous median 1) (normalised score); higher = higher AIRE activity (more reporter activation)
Details: with insulin promoter-GFP reporter in HEK293
Rule: AIRE transcriptional activation functional score of 0.7 or more gives Fulfilled; anything lower gives Not fulfilled.

Solved entries:
variant_identifier=F26T class_assignment="Not fulfilled"
variant_identifier=S518H class_assignment=Fulfilled
variant_identifier=S195M class_assignment="Not fulfilled"
variant_identifier=D297V class_assignment=Fulfilled
variant_identifier=S241H class_assignment="Not fulfilled"

Decide: AIRE transcriptional activation functional score of `Q293D` >= 0.7?
Not fulfilled

Decide: AIRE transcriptional activation functional score of `G313H` >= 0.7?
Fulfilled

Decide: AIRE transcriptional activation functional score of `A265H` >= 0.7?
Fulfilled
